Read-out: serum amyloid A (SAA), SAA1 (gene 6288)
Assay: BSK_CASM3C_SAA: BioMAP Diversity Plus: CASM3C Assay for serum amyloid A (SAA) Biomarker Activity (AID 2283049);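 further: SAA protein level quantified by ELISA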
Conditions: primary human coronary artery smooth muscle cells; actives raise or lower the signal
The source made the active and inactive calls. How the source made its calls: active means hit-call score of the fitted dose curve at least 0.9, where 1 is the maximum; inactive means score below 0.9.
Outcomes: y (active), n (inactive)

INSERT INTO assay_data (molecule, class_label) VALUES
  ('CCCC(=O)OCCC(C)C', 'n'),
  ('CC(C)(O)c1ccc(CNC(=O)c2cccnc2Oc2ccc3nonc3c2)cc1', 'y'),
  ('O=C(O)Cc1cc(I)c(Oc2ccc(O)c(I)c2)c(I)c1', 'n'),
  ('Cc1cc2c(cc1C(F)(F)F)N(C(=O)Nc1ccc(Oc3cccnc3C)nc1)CC2', 'n'),
  ('C[C@]12CC[C@@H]3c4ccc(O)cc4CC[C@H]3[C@@H]1CCC2=O', 'n'),
  ('O=C(Nc1ccc(Cl)cc1)Nc1ccc(Cl)c(Cl)c1', 'y'),
  ('Oc1ccccc1', 'n'),
  ('Oc1ccc2ccccc2c1', 'n'),
  ('COc1cccc([C@H](O)C2CCN(CCc3ccc(F)cc3)CC2)c1OC', 'n'),
  ('NCc1cccc(C2CCN(C(=O)c3ccc(C#Cc4ccccc4F)o3)CC2)c1', 'y'),
  ('COc1ccc2cc(S(=O)(=O)N[C@H](CC(=O)N[C@H](Cc3ccc(CN4[C@H](C)CCC[C@@H]4C)cc3)C(=O)N(C)C(C)C)c3ccc4c(c3)OCO4)ccc2c1', 'n'),
  ('CC(=O)N1CCN(c2ccc(OC[C@H]3CO[C@](Cn4ccnc4)(c4ccc(Cl)cc4Cl)O3)cc2)CC1', 'n'),
  ('NC(=O)c1nc(-c2cccc(-c3cc(F)ccc3OCC(F)(F)C(F)(F)F)c2)n[nH]1', 'n'),
  ('O=CCCCC=O', 'n'),
  ('O=c1[nH]sc2ccccc12', 'y'),
  ('Clc1cc(Cl)c2c(c1)N=C1CCCCCN1C2', 'n'),
  ('O=C(O)Cn1c(=O)n(Cc2ccc(Br)cc2F)c(=O)c2ccc(Cl)cc21', 'n'),
  ('CC(O)CC(C)(C)O (stereo not drawn)', 'n'),
  ('CCCCCCCC[Si](OCC)(OCC)OCC', 'n'),
  ('CC(C)(c1cc(Br)c(O)c(Br)c1)c1cc(Br)c(O)c(Br)c1', 'y'),
  ('OCCO', 'n'),
  ('CC/C(=C(/CC)c1ccc(O)cc1)c1ccc(O)cc1', 'y'),
  ('Cc1ccc(C(C)C)cc1', 'n'),
  ('CCN(Cc1cccc(S(=O)(=O)O)c1)c1ccc(C(=C2C=CC(=[N+](CC)Cc3cccc(S(=O)(=O)O)c3)C=C2)c2ccccc2S(=O)(=O)[O-])cc1', 'n'),
  ('C[C@]12CC[C@@H]3c4ccc(O)cc4CC[C@H]3[C@@H]1CC[C@H]2O', 'n'),
  ('O=C(O)c1ccccc1C(=O)OCc1ccccc1', 'n'),
  ('CCO[Si](CCCNC(N)=O)(OCC)OCC', 'n'),
  ('CC[C@H](NC(=O)c1cc(F)ccc1NS(=O)(=O)c1cccc2cccnc12)c1ccccc1', 'n'),
  ('CCCOC(=O)c1cc(O)c(O)c(O)c1', 'n'),
  ('CCCCCCCCOc1ccc(C(=O)c2ccccc2)c(O)c1', 'n'),
  ('O=c1c(-c2ccc(O)cc2)coc2cc(O)cc(O)c12', 'y'),
  ('CCCCCCCCCCCO', 'n'),
  ('CC(C)(C)c1csc(-c2cc3cc(OCc4ccccc4CC(=O)O)ccc3o2)n1', 'n'),
  ('Cc1cc(F)ccc1-c1cc(N2CC[C@@H](O)[C@H]2CO)ncc1N(C)C(=O)C(C)(C)c1cc(C(F)(F)F)cc(C(F)(F)F)c1', 'y'),
  ('CCCCCc1ccc(N)cc1', 'n'),
  ('O=C1CCC(C2CCCCC2)CC1', 'n'),
  ('Cc1cn([C@H]2C[C@H](N=[N+]=[N-])[C@@H](CO)O2)c(=O)[nH]c1=O', 'n'),
  ('O=C(OCCCCCCOC(=O)c1ccccc1)c1ccccc1', 'n'),
  ('CCCCCCCCN(C)CCCCCCCC', 'n'),
  ('O=c1ccc2ccccc2o1', 'y'),
  ('Cc1cccc2ccccc12', 'n'),
  ('CC1(C)NC(=O)N(c2ccc([N+](=O)[O-])c(C(F)(F)F)c2)C1=O', 'n'),
  ('O=C=NCCCCCCN=C=O', 'n');

###

Read-out: Macrophage colony-stimulating factor (MCSF), CSF1 (gene 1435)
Assay: BSK_CASM3C_MCSF: BioMAP Diversity Plus: CASM3C Assay for Macrophage colony-stimulating factor (MCSF) Biomarker Activity (AID 2283044);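 further: M-CSF protein amount quantified by ELISA after 24 h exposure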
Conditions: primary human coronary artery smooth muscle cells; actives raise or lower the signal
Calls of active or inactive are those of the source. The calls were made as follows: active = hit-call score of the fitted dose curve at least 0.9, where 1 is the maximum; inactive = score below 0.9.
Classes used: 1.0 (active), 0.0 (inactive)

INSERT INTO assay_data (molecule, class_label) VALUES
  ('CC1(C)NC(=O)N(c2ccc([N+](=O)[O-])c(C(F)(F)F)c2)C1=O', 1.0),
  ('Oc1ccccc1', 0.0),
  ('CCCCOC(=O)CC(CC(=O)OCCCC)(OC(C)=O)C(=O)OCCCC', 0.0),
  ('Cc1oc2c(NC(=O)c3c(Cl)cccc3Cl)cccc2c1C(C)(C)O', 0.0),
  ('O=CCCCC=O', 0.0),
  ('CC[C@@H]1C[C@H](N(Cc2cc(C(F)(F)F)cc(C(F)(F)F)c2)C(C)=O)c2cc(C(F)(F)F)ccc2N1C(=O)OC(C)C', 0.0),
  ('CCN(CC)C(=O)c1cc(S(=O)(=O)Cc2ccccc2)c(N2CCC(c3ccccc3)CC2)cc1N(CC)CCN(C)C', 0.0),
  ('C[C@]12CC[C@@H]3c4ccc(O)cc4CC[C@H]3[C@@H]1CCC2=O', 0.0),
  ('CCCC(=O)OCCC(C)C', 0.0),
  ('CC(C)(c1cc(Br)c(O)c(Br)c1)c1cc(Br)c(O)c(Br)c1', 1.0),
  ('Clc1cc(Cl)c2c(c1)N=C1CCCCCN1C2', 0.0),
  ('O=c1c(-c2ccc(O)cc2)coc2cc(O)cc(O)c12', 0.0),
  ('Cc1ncc(CO)c(CO)c1O', 0.0),
  ('CC(C)(O)c1ccc(CNC(=O)c2cccnc2Oc2ccc3nonc3c2)cc1', 0.0),
  ('CN1C(=O)N(c2ccccc2Br)Cc2cnc(Nc3ccc4c(c3)OCC(CO)O4)nc21 (centres undefined)', 1.0),
  ('Cc1ccc(C(C)C)cc1', 0.0),
  ('CCCCCCCCCCCC[N+](C)(C)C', 1.0),
  ('C[C@]12CC[C@@H]3c4ccc(O)cc4CC[C@H]3[C@@H]1CC[C@H]2O', 0.0),
  ('Oc1ccc2ccccc2c1', 0.0);

###

Target: Bile acid receptor (Homo sapiens)
Assay: NVS_NR_hFXR_Antagonist: NovaScreen (NVS) Nuclear Receptor Binding Assay for human Farnesoid X Receptor Antagonism (FXR) (AID 2283350)
Records with an inconclusive call do not appear. Activity calls are given as the source filed them. Rule for the calls: active = hit-call score of the fitted dose curve at least 0.9, where 1 is the maximum; inconclusive = response in the unintended direction; inactive = score below 0.9.
Outcome codes: active, inactive

INSERT INTO results (molecule, class_label) VALUES
  ('CCN(CC)C(=O)c1cc(S(=O)(=O)Cc2ccccc2)c(N2CCC(c3ccccc3)CC2)cc1N(CC)CCN(C)C', 'active'),
  ('O=c1[nH]sc2ccccc12', 'inactive'),
  ('O=c1c(-c2ccc(O)cc2)coc2cc(O)cc(O)c12', 'inactive');

###

Read-out: Macrophage colony-stimulating factor (MCSF), CSF1 (gene 1435)
Experiment: BSK_LPS_MCSF: BioMAP Diversity Plus: LPS Assay for Macrophage colony-stimulating factor (MCSF) Biomarker Activity (AID 2283083)
Conditions: primary human HUVEC with PBMC; actives raise or lower the signal
Calls of active or inactive are those of the source. Rule for the calls: active = hit-call score of the fitted dose curve at least 0.9, where 1 is the maximum; inactive = score below 0.9.
Outcomes: Y (active), N (inactive)

INSERT INTO measurements (compound, class_label) VALUES
  ('CCCCOC(=O)CC(CC(=O)OCCCC)(OC(C)=O)C(=O)OCCCC', 'N'),
  ('OCCO', 'N'),
  ('Cc1oc2c(NC(=O)c3c(Cl)cccc3Cl)cccc2c1C(C)(C)O', 'N'),
  ('O=C1CCC(C2CCCCC2)CC1', 'N'),
  ('O=c1[nH]sc2ccccc12', 'Y'),
  ('CC/C(=C(/CC)c1ccc(O)cc1)c1ccc(O)cc1', 'Y'),
  ('Cc1occc1C(=O)Nc1ccc(C(=O)N2CCC(F)(F)/C(=C\C(=O)N3CCC(N4CCCCC4)CC3)c3ccccc32)cc1', 'N'),
  ('O=CCCCC=O', 'Y'),
  ('O=C(O)c1ccccc1-n1cc(C(=O)O)c(=O)c2cc(Nc3c(F)cc(F)cc3Cl)c(Cl)cc21', 'N'),
  ('CC(C)(c1cc(Br)c(O)c(Br)c1)c1cc(Br)c(O)c(Br)c1', 'Y'),
  ('CCN(Cc1cccc(S(=O)(=O)O)c1)c1ccc(C(=C2C=CC(=[N+](CC)Cc3cccc(S(=O)(=O)O)c3)C=C2)c2ccccc2S(=O)(=O)[O-])cc1', 'N'),
  ('CCCC(=O)OCCC(C)C', 'N'),
  ('O=C(O)c1ccccc1C(=O)OCc1ccccc1', 'N'),
  ('CN(C)C(=O)C1(N2CCCCC2)CCN(CC[C@@]2(c3ccc(Cl)c(Cl)c3)CN(C(=O)c3ccccc3)CCO2)CC1', 'Y'),
  ('COc1ccc2cc(S(=O)(=O)N[C@H](CC(=O)N[C@H](Cc3ccc(CN4[C@H](C)CCC[C@@H]4C)cc3)C(=O)N(C)C(C)C)c3ccc4c(c3)OCO4)ccc2c1', 'Y'),
  ('CCCCCCCCOC(=O)c1cc(O)c(O)c(O)c1', 'Y'),
  ('CCN(CC)C(=O)c1cc(S(=O)(=O)Cc2ccccc2)c(N2CCC(c3ccccc3)CC2)cc1N(CC)CCN(C)C', 'Y'),
  ('CC[C@@H]1C[C@H](N(Cc2cc(C(F)(F)F)cc(C(F)(F)F)c2)C(C)=O)c2cc(C(F)(F)F)ccc2N1C(=O)OC(C)C', 'N'),
  ('CCCCCc1ccc(N)cc1', 'N'),
  ('CN1C(=O)CC[C@H]1c1cccnc1', 'N'),
  ('OC12N=C(c3ccccc3)SC1Cc1cc(Cl)ccc12 (stereo not drawn)', 'N'),
  ('CCCCCCCCCCCC[N+](C)(C)C', 'Y'),
  ('CCCCCCCCCCCCO', 'Y'),
  ('CC1=CC(=O)/C(=C(/C)O)C(=O)O1', 'N'),
  ('Oc1ccc2ccccc2c1', 'N'),
  ('O=C(O)Cn1c(=O)n(Cc2ccc(Br)cc2F)c(=O)c2ccc(Cl)cc21', 'N'),
  ('CC1(C)NC(=O)N(c2ccc([N+](=O)[O-])c(C(F)(F)F)c2)C1=O', 'N'),
  ('CN(C)c1ccc(C(=C2C=CC(=[N+](C)C)C=C2)c2ccc(N(C)C)cc2)cc1', 'Y');
